The reported numbers originate from patent US20230033285A1.

- Test system: SARS-CoV-2
- test name: microbe, parasite or virus in culture
- Assay type: cell-based
- assay conditions: Severe acute respiratory syndrome coronavirus 2; HeLa-ACE2 cells infected with SARS-CoV-2, 24 h, immunofluorescence of infected cells; read-out: EC50, μM (Hela)
Provide the recorded EC50 for the entries that follow.

Look over these answered cases.
CC(C)C[C@H](NC(=O)C(=O)Nc1ccccc1F)C(=O)N[C@H](C#N)C[C@@H]1CCNC1=O : 0.5 to 1 µM
CC(C)(C)NC(=O)C(=O)N1C[C@@H]2CCC[C@@H]2[C@H]1C(=O)N[C@@H](C[C@@H]1CCCNC1=O)C(=O)CO : 0.5 to 1 µM
N#C[C@H](C[C@@H]1CCCNC1=O)NC(=O)[C@@H]1[C@H]2CCC[C@H]2CN1C(=O)C(=O)Nc1ccccc1F : 0.5 to 1 µM
CC(C)CC(=O)OCC(=O)[C@H](C[C@@H]1CCNC1=O)NC(=O)[C@H](CC(C)C)NC(=O)C(=O)Nc1ccccc1F : 0.05 to 0.2 µM
CC(C)(C)C[C@H](NC(=O)C(=O)Nc1ccccc1OC(F)(F)F)C(=O)N[C@@H](CC1CCCNC1=O)C(=O)CO (some centres unmarked) : < 0.05 µM
CC(C)C[C@H](NC(=O)C(=O)Nc1ccccc1F)C(=O)N[C@H](C=O)C[C@@H]1CCCNC1=O : 0.05 to 0.2 µM

Hi team, please reply with EC50 for each item in this list.
1. Cc1ccccc1NC(=O)C(=O)N1C[C@@H]2CCC[C@@H]2[C@H]1C(=O)N[C@@H](C[C@@H]1CCCNC1=O)C(=O)CO
2. CCCCCCCCCCCCCCC(=O)OCC(=O)[C@H](C[C@@H]1CCNC1=O)NC(=O)[C@H](CC(C)C)NC(=O)c1cc2c(OC)cccc2[nH]1
3. CC(C)C[C@H](NC(=O)C(=O)Nc1ccccc1F)C(=O)N[C@@H](C[C@@H]1CCCNC1=O)C(=O)COC(=O)c1ccccc1C#N

1: 0.05 to 0.2 µM; 2: 0.2 to 0.5 µM; 3: 0.05 to 0.2 µM

Could you tell me EC50 for each of these compounds? They are listed below.
1. CC(C)CC(=O)OCC(=O)[C@H](C[C@@H]1CCCNC1=O)NC(=O)[C@H](CC(C)C)NC(=O)C(=O)Nc1ccccc1F
2. CC(C)C[C@H](NC(=O)C(=O)Nc1ccccc1)C(=O)N[C@@H](C[C@@H]1CCNC1=O)C(=O)CO

1. 0.05 to 0.2 µM
2. > 1 µM

###

- System: SARS-CoV-2
- test name: microbe, parasite or virus in culture
- Assay type: cell-based
- assay conditions: Severe acute respiratory syndrome coronavirus 2, HeLa-ACE2, 24 h, read-out: EC50, μM (Hela)
So I've got a bunch of compounds here, and I need their EC50 values.

CC1(C)[C@@H]2[C@@H](C(=O)N[C@H](C=O)C[C@@H]3CCNC3=O)N(C(=O)COc3ccc(OC(F)(F)F)cc3)C[C@@H]21 : 0.2 to 0.5 µM

Parameters: items (list). Returns: EC50 for each item.
1. CC(C)C[C@H](NC(=O)C(=O)NC1CCCCC1)C(=O)N[C@@H](C[C@@H]1CCNC1=O)C(=O)CO
2. CC(C)(C)[C@H](NC(=O)C(F)(F)F)C(=O)N1C[C@H]2[C@@H]([C@H]1C(=O)N[C@H](C=O)C[C@@H]1CCCNC1=O)C2(C)C

> 1 µM
0.5 to 1 µM

###

- System: SARS-CoV-2
- test name: microbe, parasite or virus in culture
- Type: cell-based
- assay conditions: Severe acute respiratory syndrome coronavirus 2; HeLa-ACE2 cells infected with SARS-CoV-2, 24 h, immunofluorescence of infected cells; read-out: EC50, μM (Hela)
assay endpoint: EC50

Hey, quick one: what's EC50 for each of these?
1. CC(C)C[C@H](NC(=O)Nc1ccccc1F)C(=O)N[C@@H](C[C@@H]1CCNC1=O)C(=O)CO
2. Cc1ccccc1NC(=O)C(=O)N1C[C@@H]2CCC[C@@H]2[C@H]1C(=O)N[C@H](C[C@@H]1CCCNC1=O)C(=O)CO
3. CC(C)C[C@H](NC(=O)C(=O)NC(C)(C)C)C(=O)N[C@@H](C[C@@H]1CCCNC1=O)C(=O)CO
4. O=C[C@H](C[C@@H]1CCNC1=O)NC(=O)[C@H](CC1CCCCC1)NC(=O)C(=O)Nc1ccccc1F

1. > 1 µM
2. > 1 µM
3. > 1 µM
4. 0.05 to 0.2 µM

###

- Tested on: SARS-CoV-2
- test name: microbe, parasite or virus in culture
- Assay type: cell-based
- assay conditions: Severe acute respiratory syndrome coronavirus 2; HeLa-ACE2 cells infected with SARS-CoV-2, 24 h, immunofluorescence of infected cells; read-out: EC50, μM (Hela)
Kindly supply the reported EC50 values for the records listed here.

Recorded EC50, per entry:
COc1cccc2[nH]c(C(=O)N[C@@H](CC(C)C)C(=O)N[C@@H](C[C@@H]3CCNC3=O)C(=O)COC(=O)C3CCC(N4CCCCC4)CC3)cc12 (stereo partly drawn) : > 1 µM
CC(C)C[C@H](NC(=O)C(=O)NCC(F)(F)F)C(=O)N[C@@H](C[C@@H]1CCNC1=O)C(=O)CO : > 1 µM

Answer for every listed entry: what is its EC50? The entries follow.
1. CCCCCCC(=O)OCC(=O)[C@H](C[C@@H]1CCNC1=O)NC(=O)[C@H](CC(C)C)NC(=O)c1cc2c(OC)cccc2[nH]1
2. CC(C)C[C@H](NC(=O)c1cc(-c2ccccn2)on1)C(=O)N[C@H](C=O)C[C@@H]1CCNC1=O
3. CC(C)(C)C[C@H](NC(=O)C(=O)NC12CC(F)(C1)C2)C(=O)N[C@@H](C[C@@H]1CCCNC1=O)C(=O)CO
4. Cc1ccc(C2(NC(=O)C(=O)N[C@@H](CC(C)C)C(=O)N[C@@H](C[C@@H]3CCNC3=O)C(=O)CO)CC2)cc1

1: 0.05 to 0.2 µM; 2: > 1 µM; 3: 0.05 to 0.2 µM; 4: 0.5 to 1 µM

###

- System: SARS-CoV-2
- test name: microbe, parasite or virus in culture
- Type: cell-based
- assay conditions: Severe acute respiratory syndrome coronavirus 2; HeLa-ACE2 cells infected with SARS-CoV-2, 24 h, immunofluorescence of infected cells; read-out: EC50, μM (Hela)
assay endpoint: EC50

Return reported EC50 values for all items listed beneath this line.
1. CC(C)C[C@H](NC(=O)C(=O)NC12CCC(F)(CC1)CC2)C(=O)N[C@@H](C[C@@H]1CCCNC1=O)C(=O)CO [Compound 135]
2. Cc1ccccc1NC(=O)C(=O)N[C@@H](Cc1ccccc1F)C(=O)N[C@@H](C[C@@H]1CCNC1=O)C(=O)CO [Compound 20]
3. CC(C)(C)C[C@H](NC(=O)C(=O)Nc1cccc(Cl)c1)C(=O)N[C@@H](CC1CCCNC1=O)C(=O)CO (stereo partly drawn) [Compound 102]

1. > 1 µM
2. > 1 µM
3. < 0.05 µM

Below is a list of compounds. For each, state its recorded EC50.
1. CC(C)(C)NC(=O)C(=O)N1C[C@H]2[C@@H]([C@H]1C(=O)N[C@H](C=O)C[C@@H]1CCCNC1=O)C2(C)C [Compound 46]
2. CC(C)(C)C[C@H](NC(=O)C(=O)Nc1ccc(OC(F)(F)F)cc1)C(=O)N[C@@H](C[C@@H]1CCCNC1=O)C(=O)CO [Compound 101]

> 1 µM
0.05 to 0.2 µM

Lab note: measured EC50 of CC(C)(C)C[C@H](NC(=O)C(=O)Nc1cccc(C(F)(F)F)n1)C(=O)N[C@@H](C[C@@H]1CCCNC1=O)C(=O)CO [Compound 112] was 0.5 to 1 µM

###

- System: SARS-CoV-2
- test name: microbe, parasite or virus in culture
- Assay type: cell-based
- assay conditions: Severe acute respiratory syndrome coronavirus 2; HeLa-ACE2 cells infected with SARS-CoV-2, 24 h, immunofluorescence of infected cells; read-out: EC50, μM (Hela)
assay endpoint: EC50

CC(C)C[C@H](NC(=O)C(=O)Nc1ccccc1F)C(=O)N[C@@H](C[C@@H]1CCCCNC1=O)C(=O)CO : > 1 µM

// for each compound below, give its EC50
1. COc1cccc(OC)c1NC(=O)C(=O)N[C@@H](CC(C)C)C(=O)N[C@@H](C[C@@H]1CCNC1=O)C(=O)CO
2. CC1(C)[C@@H]2[C@@H](C(=O)N[C@H](C#N)C[C@@H]3CCCNC3=O)N(C(=O)c3ccnc(C(F)(F)F)c3)C[C@@H]21
3. Cc1cccc(C)c1NC(=O)C(=O)N[C@@H](CC(C)C)C(=O)N[C@@H](C[C@@H]1CCNC1=O)C(=O)CO
4. COc1cccc(NC(=O)C(=O)N[C@@H](CC(C)C)C(=O)N[C@@H](C[C@@H]2CCNC2=O)C(=O)CO)c1
5. CC(C)(C)C[C@H](NC(=O)C(=O)Nc1ccccc1F)C(=O)N[C@@H](C[C@@H]1CCCNC1=O)C(=O)CO
6. O=C(N[C@@H](CC1CC1)C(=O)N[C@@H](C[C@@H]1CCCNC1=O)C(=O)CO)C(=O)NC12CCC(F)(CC1)CC2
7. N#C[C@H](C[C@@H]1CCNC1=O)NC(=O)[C@@H]1[C@H]2CCC[C@H]2CN1C(=O)C(=O)Nc1ccccc1F
8. CC(C)C[C@H](NC(=O)C(=O)Nc1ccccc1)C(=O)N[C@H](C=O)C[C@@H]1CCNC1=O

> 1 µM
> 1 µM
> 1 µM
0.05 to 0.2 µM
< 0.05 µM
> 1 µM
> 1 µM
> 1 µM

// each listed compound needs a value for EC50
1. CC(C)CCC(=O)N[C@@H](CC(C)(C)C)C(=O)N[C@H](C#N)C[C@@H]1CCCNC1=O
2. Cc1cccc(C)c1NC(=O)C(=O)N[C@@H](CC(C)C)C(=O)NC(C[C@@H]1CCNC1=O)C(=O)CO (some centres unmarked)
3. CC(C)C[C@H](NC(=O)C(=O)Nc1ccccc1F)C(=O)N[C@@H](C[C@@H]1CCCNC1=O)C(=O)CO
4. O=C(Nc1ccccc1F)C(=O)N1CC2(CC2)C[C@H]1C(=O)N[C@@H](C[C@@H]1CCNC1=O)C(=O)CO

["> 1 µM", "0.2 to 0.5 µM", "0.05 to 0.2 µM", "0.2 to 0.5 µM"]

For each entry beneath this line, provide reported EC50.
1. Cc1ccccc1NC(=O)C(=O)N[C@@H](CC(C)C)C(=O)N[C@@H](C[C@@H]1CCCNC1=O)C(=O)CO
2. CC(C)C[C@H](NC(=O)C(=O)Nc1ccccc1F)C(=O)N[C@@H](C[C@@H]1CCNC1=O)C(=O)COC(=O)C1CCC(N2CCCCC2)CC1 (some centres unmarked)
3. CC(=O)OCC(=O)[C@H](C[C@@H]1CCNC1=O)NC(=O)[C@H](CC(C)C)NC(=O)C(=O)Nc1ccccc1F
4. CC(C)C[C@H](NC(=O)C(=O)Nc1ccccc1F)C(=O)N[C@@H](C[C@@H]1CCNC1=O)C(=O)COC(=O)C1CCN(C2CCCCC2)CC1
5. COc1cccc2[nH]c(C(=O)N[C@@H](CC(C)C)C(=O)N[C@@H](C[C@@H]3CCNC3=O)C(=O)COC(=O)C3CCN(C4CCCCC4)CC3)cc12
6. CCc1cccc(CC)c1NC(=O)C(=O)N[C@@H](CC(C)C)C(=O)N[C@@H](C[C@@H]1CCNC1=O)C(=O)CO
7. CC(C)(C)C[C@H](NC(=O)C(=O)Nc1ccccc1C(F)(F)F)C(=O)N[C@@H](CC1CCCNC1=O)C(=O)CO (some centres unmarked)

0.05 to 0.2 µM
0.2 to 0.5 µM
0.05 to 0.2 µM
0.05 to 0.2 µM
0.5 to 1 µM
< 0.05 µM
< 0.05 µM

Would you be so kind as to report EC50 for each listed record?
1. CC(C)C[C@@H](O)C(=O)N[C@@H](Cc1cccc(F)c1)C(=O)N[C@@H](C[C@@H]1CCCNC1=O)C(=O)CO
2. O=C[C@H](C[C@@H]1CCNC1=O)NC(=O)[C@@H]1[C@H]2CCC[C@H]2CN1C(=O)C(=O)Nc1ccccc1F
3. CC1(C)[C@@H]2[C@@H](C(=O)N[C@H](C#N)C[C@@H]3CCNC3=O)N(C(=O)C(=O)Nc3ccccc3F)C[C@@H]21
4. COc1cccc(C)c1NC(=O)C(=O)N[C@@H](CC(C)C)C(=O)N[C@@H](C[C@@H]1CCNC1=O)C(=O)CO
5. CC(C)C[C@H](NC(=O)c1cc(-c2ccccc2F)on1)C(=O)N[C@H](C=O)C[C@@H]1CCCNC1=O

1. > 1 µM
2. > 1 µM
3. > 1 µM
4. 0.2 to 0.5 µM
5. 0.05 to 0.2 µM

Looking up CC(C)(C)C[C@H](NC(=O)C(=O)Nc1cccc(OC(F)(F)F)c1)C(=O)N[C@@H](CC1CCCNC1=O)C(=O)CO (some centres unmarked) , I found its EC50 recorded as < 0.05 µM
